Experiment: Cytotoxicity (MTT) in B95-8 cells
Type: cell-based, cotton-top tamarin (Saguinus oedipus)
Conditions: cotton-top tamarin (Saguinus oedipus)
attribute_measured: CC50 at 72 h

Query: For the compound Nc1nc(O)c2ncn(COC(CO)CO)c2n1 [Ganciclovir, reference compound] , what CC50 at 72 h is on record?
Response: > 1000 mg/L

###

Assay: Cytotoxicity (MTT) in HELF cells
Settings: human
attribute_measured: CC50 at 72 h

Query: Please look up its CC50 at 72 h: `O=C(OC[C@H]1O[C@@H](OC(=O)c2cc(O)c(O)c(O)c2)[C@H](OC(=O)c2cc(O)c(O)c(O)c2)[C@@H](OC(=O)c2cc(O)c(O)c(O)c2)[C@@H]1OC(=O)c1cc(O)c(O)c(O)c1)c1cc(O)c(O)c(O)c1`
Response: 150 mg/L

###

Assay: Cytotoxicity (MTT) in B95-8 cells
Assay type: cell-based, cotton-top tamarin (Saguinus oedipus)
Details: cotton-top tamarin (Saguinus oedipus); B95-8 cells, MTT, 72 h; read-out: CC50
attribute_measured: CC50 at 72 h (µg/mL)
One number for each entry, in µg/mL.

Query: Please give the measured CC50 at 72 h for this compound: O=C1O[C@H]2C3OC(=O)c4cc(O)c(O)c(O)c4-c4c(cc(O)c(O)c4O)C(=O)OC[C@H]2O[C@@H](OC(=O)c2cc(O)c(O)c(O)c2)[C@@H]3OC(=O)c2cc(O)c(O)c3c2[C@@H]2C1=CC(=O)[C@](O)(O3)C2(O)O [Geraniin]
Response: 63

###

Could you please report measured CC50 for the items listed next?
Experiment: in vitro
Conditions: dog
One number for each entry, in µg/mL.

{"columns": ["compound_structure", "reading_unit", "recorded_value"],
 "data": [
  ["O=C1O[C@H]2C3OC(=O)c4cc(O)c(O)c(O)c4-c4c(cc(O)c(O)c4O)C(=O)OC[C@H]2O[C@@H](OC(=O)c2cc(O)c(O)c(O)c2)[C@@H]3OC(=O)c2cc(O)c(O)c3c2[C@@H]2C1=CC(=O)[C@](O)(O3)C2(O)O", "µg/mL", 288]
]}

Query: Which CC50 is reported for this molecule? `O=C(OC[C@H]1O[C@@H](OC(=O)c2cc(O)c(O)c(O)c2)[C@H](OC(=O)c2cc(O)c(O)c(O)c2)[C@@H](OC(=O)c2cc(O)c(O)c(O)c2)[C@@H]1OC(=O)c1cc(O)c(O)c(O)c1)c1cc(O)c(O)c(O)c1`
Response: 86.3
